Recorded TGI by entry
- Test system: KM20L2 colon
- TEST: NCI tumour cell line growth inhibition, 48 h
ENDPOINT LABEL: TGI

| COMPOUND | EXPERIMENTAL RESULT |
| --- | --- |
| COc1c2c(c3c(c1C1OC(C)[C@@H](C)O1)CC(C)(C)O3)C(=O)c1ccccc1C2=O (some centres not stated) | > 100 µM |
| CCC(C)CN1C(=O)NC(C)(Cc2ccccc2)C1=O (configuration not stated) | > 100 µM |
| CCOc1ccccc1NC(=O)CCC(=O)OC | > 100 µM |
| c1ccc(SC2(Sc3ccccc3)CCCC2)cc1 | > 100 µM |
| CC1=C(C(=O)NCc2ccccc2)C(c2ccc(C3C(C(=O)NCc4ccccc4)=C(C)NC(C)=C3C(=O)NCc3ccccc3)cc2)C(C(=O)NCc2ccccc2)=C(C)N1 | 29 µM |
| FC(F)(F)C1(Cl)C(c2ccccc2)=C1c1ccccc1 | 30.1 µM |
| O=C(O)c1ccccc1Cc1ccco1 | > 100 µM |
| O=C(CSc1nnc(-c2ccc(N=Cc3ccc(Cl)cc3)cc2)o1)Nc1ccccc1Cl | > 100 µM |
| COc1ccc(/C(=N/NC(N)=O)C2(O)C(=O)Nc3ccc([N+](=O)[O-])cc32)cc1 (configuration not stated) | 51.5 µM |
| [O-]/[N+](=C\c1ccccc1)[C@H](COCc1ccccc1)c1ccccc1 | > 100 µM |
| O=C(O)CN(c1ccccc1)S(=O)(=O)c1ccc(NC(=O)c2ccccc2)cc1 | > 100 µM |
| CC1CC2C3CC(F)C4=CC(=O)C=CC4(C)C3(F)C(O)CC2(C)C1(O)C(=O)COC(=O)C(C)(C)C (configuration not stated) | > 100 µM |
